- Test system: OV-56 (Ovarian Carcinoma)
- ASSAY TEXT: combination Emax (second highest fraction inhibited in the dose matrix, 72 h); higher = more inhibition; extreme values may be limits of the assay

{"COMPOUND": "COc1cccc(OCCCN)c1-c1cc(Nc2cnc(C#N)cn2)n[nH]1 [Prexasertib] + C[C@@H]1COCCN1C2=NC(=NC(=C2)C3(CC3)[S@](=N)(=O)C)C4=C5C=CNC5=NC=C4 [AZD6738] (first compound max 1 µM, 7x7, partner max 10 µM)", "combination Emax": 0.916}
{"COMPOUND": "C=CCn1c(=O)c2cnc(Nc3ccc(N4CCN(C)CC4)cc3)nc2n1-c1cccc(C(C)(C)O)n1 [AZD1775] + C[C@@H]1COCCN1C2=NC(=NC(=C2)C3(CC3)[S@](=N)(=O)C)C4=C5C=CNC5=NC=C4 [AZD6738] (first compound max 1 µM, partner max 10 µM)", "combination Emax": 0.849}
{"COMPOUND": "CCc1c2c(nc3ccc(O)cc13)-c1cc3c(c(=O)n1C2)COC(=O)[C@]3(O)CC [SN-38] + CN(C)CCCOc1ccc(-c2ccc3ncc4c(c3c2)n(C2CCOCC2)c(=O)n4C)cn1 [AZD0156] (first compound max 0.3 µM, 7x7, partner max 1 µM)", "combination Emax": 0.88}
{"COMPOUND": "Cc1c2c(nn1C)CSCc1cc(n(C)n1)CSc1cc(c3ccccc3c1)OCCCc1c(C(=O)O)n(C)c3c-2c(Cl)ccc13 [AZD5991] + Cn1cnc2c(F)c(Nc3ccc(Br)cc3Cl)c(C(=O)NOCCO)cc21 [Selumetinib] (first compound max 1 µM, 7x7, partner max 3 µM)", "combination Emax": 0.189}

----------
- Tested on: CAL-33 (Oral Cavity Carcinoma)
- ASSAY TEXT: combination Emax (second highest fraction inhibited in the dose matrix, 72 h); higher = more inhibition; extreme values may be limits of the assay
Recorded combination Emax values for a group of compounds are listed next.

{"COMPOUND": "Cc1c2c(nn1C)CSCc1cc(n(C)n1)CSc1cc(c3ccccc3c1)OCCCc1c(C(=O)O)n(C)c3c-2c(Cl)ccc13 [AZD5991] + C[C@@H](Nc1cc(F)cc(F)c1)c1cc(C(=O)N(C)C)cc2c(=O)cc(N3CCOCC3)oc12 [AZD8186] (first compound max 1 µM, 7x7, partner max 3 µM)", "combination Emax": 0.28}
{"COMPOUND": "CCN(CCO)CCCOc1ccc2c(Nc3cc(CC(=O)Nc4cccc(F)c4)[nH]n3)ncnc2c1 [AZD2811] + C=CCn1c(=O)c2cnc(Nc3ccc(N4CCN(C)CC4)cc3)nc2n1-c1cccc(C(C)(C)O)n1 [AZD1775] (first compound max 1 µM, partner max 1 µM)", "combination Emax": 0.877}
{"COMPOUND": "CC1(C)CCC(CN2CCN(c3ccc(C(=O)NS(=O)(=O)c4ccc(NCC5CCOCC5)c([N+](=O)[O-])c4)c(Oc4cnc5[nH]ccc5c4)c3)CC2)=C(c2ccc(Cl)cc2)C1 [Venetoclax] + Cc1cc2ncnn2cc1Nc1ncc2c(n1)n(C1CCOCC1)c(=O)n2C [AZD7648] (first compound max 1 µM, 7x7, partner max 10 µM)", "combination Emax": 0.329}

----------
- Test system: NCI-H524 (Small Cell Lung Carcinoma)
- ASSAY TEXT: combination Emax (second highest fraction inhibited in the dose matrix, 72 h); higher = more inhibition; extreme values may be limits of the assay
OBSERVATION TYPE: combination Emax

{"COMPOUND": "COc1nnc2ccc(N3CCC(c4ccc(OCCN5CCN(C)C(=O)[C@H]5C)cc4)CC3)nn12 [AZD5153] + Cn1cnc2c(F)c(Nc3ccc(Br)cc3Cl)c(C(=O)NOCCO)cc21 [Selumetinib] (first compound max 1 µM, 7x7, partner max 10 µM)", "MEASUREMENT TARGET": "NCI-H524 (Small Cell Lung Carcinoma)", "OBSERVED": 0.575}
{"COMPOUND": "CN(C)CCCOc1ccc(-c2ccc3ncc4c(c3c2)n(C2CCOCC2)c(=O)n4C)cn1 [AZD0156] + CCN(CCO)CCCOc1ccc2c(Nc3cc(CC(=O)Nc4cccc(F)c4)[nH]n3)ncnc2c1 [AZD2811] (first compound max 1 µM, 7x7, partner max 1 µM)", "MEASUREMENT TARGET": "NCI-H524 (Small Cell Lung Carcinoma)", "OBSERVED": 0.973}
{"COMPOUND": "Cc1c2c(nn1C)CSCc1cc(n(C)n1)CSc1cc(c3ccccc3c1)OCCCc1c(C(=O)O)n(C)c3c-2c(Cl)ccc13 [AZD5991] + Nc1ccn([C@@H]2O[C@H](CO)[C@@H](O)C2(F)F)c(=O)n1 [Gemcitabine] (first compound max 1 µM, 7x7, partner max 0.3 µM)", "MEASUREMENT TARGET": "NCI-H524 (Small Cell Lung Carcinoma)", "OBSERVED": 0.788}
{"COMPOUND": "Cn1cnc2c(F)c(Nc3ccc(Br)cc3Cl)c(C(=O)NOCCO)cc21 [Selumetinib] + C[C@@H]1COCCN1C2=NC(=NC(=C2)C3(CC3)[S@](=N)(=O)C)C4=C5C=CNC5=NC=C4 [AZD6738] (first compound max 10 µM, 7x7, partner max 10 µM)", "MEASUREMENT TARGET": "NCI-H524 (Small Cell Lung Carcinoma)", "OBSERVED": 0.681}
